Tested on: MDA-MB-453
assay text: normalised response (% of control), CellTox Green; higher = less cell death (100 = DMSO, 0 = benzethonium chloride kill control)
cond: incubation time: 72 h
metric: normalised response (%)
Report the value in % with no unit label.

// worked examples, normalised response included
{"columns": ["compound", "measured target", "normalised response (%)"],
 "data": [
  ["Nc1ncn([C@@H]2O[C@H](CO)[C@@H](O)[C@H]2O)c(=O)n1 [Azacitidine] (100 nM)", "MDA-MB-453", 83.8],
  ["C[C@]12CC[C@@H]3c4ccc(OC(=O)N(CCCl)CCCl)cc4CC[C@H]3[C@@H]1CC[C@@H]2O [Estramustine] (100 nM)", "MDA-MB-453", 103],
  ["C[C@]1(O)C[C@@H](c2nc(-c3ccc4ccc(-c5ccccc5)nc4c3)c3c(N)nccn32)C1 [Linsitinib] (10000 nM)", "MDA-MB-453", 99.2],
  ["Nc1ncn([C@@H]2O[C@H](CO)[C@@H](O)[C@H]2O)c(=O)n1 [Azacitidine] (10000 nM)", "MDA-MB-453", 98.8],
  ["Nc1nc2[nH]cnc2c(=S)[nH]1 [Thioguanine] (1000 nM)", "MDA-MB-453", 106],
  ["CC(=O)N(O)CCCCCNC(=O)CCC(=O)N(O)CCCCCNC(=O)CCC(=O)N(O)CCCCCN [Deferoxamine] (1000 nM)", "MDA-MB-453", 100]
]}

According to the records, this compound C[C@]12CC[C@@H]3c4ccc(OC(=O)N(CCCl)CCCl)cc4CC[C@H]3[C@@H]1CC[C@@H]2O [Estramustine] (1000 nM) displays normalised response of 97.3

Data point: O=NN(CCCl)C(=O)NCCCl [Carmustine] (100 nM) ; normalised response = 91.5

response.value for Cc1sc2c(c1C)C(c1ccc(Cl)cc1)=N[C@@H](CC(=O)OC(C)(C)C)c1nnc(C)n1-2 [(+)JQ1] (1000 nM) (field: normalised response) = 104
